# conditionLabel: in THF, 293.15 K
readoutKind: solubility (mole fraction)

> print(dat)
            smilesstr                 readoutkind  result
1  NC(=O)[C@@H]1CCCN1  solubility (mole fraction)   0.107

---

# conditionLabel: in acetone, 308.15 K
readoutKind: solubility (mole fraction)

> print(dat)
            smilesstr                 readoutkind  numericvalue
1  NC(=O)[C@@H]1CCCN1  solubility (mole fraction)         0.177

---

# conditionLabel: in isopropanol, 308.15 K
readoutKind: solubility (mole fraction)

> print(dat)
            smilesstr  result
1  NC(=O)[C@@H]1CCCN1    0.19
